# Tested on: Fibroblast
# ASSAY METHOD TEXT: Incucyte cell viability with human fibroblast; also: unitless GR value; below 1 slowed growth and below 0 cell loss
# Format: toxicity, cell-based
# CONDITION INFO: 6 h, 10 µM, compound concentration 10 uM, replicate number 2
Recorded Growth Rate by entry
Please state the value as a number alone, without comment.

Here are 10 molecules together with their reported answers.
So, NCC1CCC(CNc2nc(NCc3ccccc3OC(F)(F)F)ncc2[N+](=O)[O-])CC1 (stereo not given) ? Its Growth Rate was 0.74

So, O=S(=O)(Nc1ccc(C(O)(C(F)(F)F)C(F)(F)F)cc1)c1cccs1 ? Its Growth Rate was 0.87

So, Nc1ncnc2c1c(I)cn2[C@@H]1O[C@H](CO)[C@@H](O)[C@H]1O ? Its Growth Rate was 0.95

So, Cc1c(NC(=O)c2cccn(-c3ccc(F)cc3)c2=O)ccc(Oc2ccnc(NC(=O)C3CC3)c2)c1C ? Its Growth Rate was 0.99

So, CC(C)(O)c1cn(-c2ccc(-c3cccc(S(C)(=O)=O)c3)cc2)c(C(C)(C)c2ccccc2Cl)n1 ? Its Growth Rate was 0.64

So, Cc1c(CN2CCC3(CC2)CN(c2ncnc4sc(CC(F)(F)F)cc24)C3)ccc2c1cc(C#N)n2CC(N)=O ? Its Growth Rate was -0.88

So, CCOC(=O)c1ccc(CN(Cc2ccc(-c3cccc(S(C)(=O)=O)c3)cc2)S(=O)(=O)c2c(C)cc(C)cc2C)o1 ? Its Growth Rate was 0.38

So, CCNC(=O)c1ccc2c(c1)NC(=O)/C2=C(\Nc1ccc(CN(C)C)cc1)c1ccccc1 ? Its Growth Rate was 0.09

So, N#Cc1ccnc(Nc2cc(C3CCN(C4COC4)CC3)cc(N3CCC(F)(F)C3)n2)c1 ? Its Growth Rate was -1

So, CCc1cncnc1N1CCN(Cc2nc3cc(C(F)(F)F)ccc3[nH]2)CC1 ? Its Growth Rate was -0.99

---
So, CCCS(=O)(=O)Nc1ccc(F)c(Nc2ncnc3cnc(-n4cnc(C)c4)nc23)c1F ? Its Growth Rate was 0.4

So, Cl.Cl.Fc1ccc([C@@H]2CCNC[C@H]2COc2ccc3c(c2)OCO3)cc1.Fc1ccc([C@@H]2CCNC[C@H]2COc2ccc3c(c2)OCO3)cc1.O [PAROXETINE HYDROCHLORIDE] ? Its Growth Rate was -1

So, CN1C2CCCC1CC(Nc1ccccc1Br)C2 (stereo not given) ? Its Growth Rate was -0.45

----------
# Test system: Fibroblast
# ASSAY METHOD TEXT: Incucyte cell viability with human fibroblast; also: unitless GR value; below 1 slowed growth and below 0 cell loss
# Format: toxicity, cell-based
# CONDITION INFO: 6 h, 10 µM, compound concentration 10 uM, replicate number 1
METRIC NAME: Growth Rate
Please state the value as a number alone, without comment.

So, CC[C@H](Nc1c(C#N)c(-c2ccc(-c3cccc(C)c3F)cc2)nc2cnccc12)C(=O)O ? Its Growth Rate was 0.67

So, NCC1CCC(CNc2nc(NCc3ccccc3OC(F)(F)F)ncc2[N+](=O)[O-])CC1 (centres undefined) ? Its Growth Rate was 0.48

So, O=C(O)CCCCCC[C@@H]1C(=O)NC(=O)N1CCC(O)C1CCCCC1 (some centres undefined) ? Its Growth Rate was -0.07

---
So, CCN1CCN(Cc2ccc(NC(=O)Nc3ccc(Oc4cc(NC)ncn4)cc3)cc2C(F)(F)F)CC1 ? Its Growth Rate was -1

So, COc1ccccc1[C@@H]1CNCCC12CCN(C(=O)[C@](OC)(c1ccccc1)C(F)(F)F)CC2 ? Its Growth Rate was 0.9

So, COc1cc(N2CCN(C)CC2)ccc1Nc1ncc2c(n1)N(C)c1ccccc1C(=O)N2CC(F)(F)F ? Its Growth Rate was 0.44

So, Cl.N/C(=N\C(=O)c1nc(Cl)c(N)nc1N)NCc1ccccc1 [BENZAMIL HYDROCHLORIDE] ? Its Growth Rate was -0.25

So, CN(C)Cc1cccc(NC(=C2C(=O)Nc3cc(C(=O)N(C)C)ccc32)c2ccccc2)c1 ? Its Growth Rate was 0.08

So, CC(=O)c1c(C)c2cnc(Nc3ccc(N4CCNCC4)cn3)nc2n(C2CCCC2)c1=O ? Its Growth Rate was 0.91
